target: COVID-19 (nCoV-2019, SARS-CoV2) Mpro (Severe acute respiratory syndrome coronavirus 2); assay: COVID-19 (nCoV-2019, SARS-CoV2) Mpro enzymatic assay; assay type: biochemical; settings: 25 nM Mpro, 25 μM substrate; read-out: COVID-19 Mpro IC50
pIC50: −log10 of the molar value.
As shown below, each of these compounds has a reported pIC50 value.

In the examples that follow, each entry is paired with its recorded pIC50.
Compound: CO[C@@H]1C[C@H](C(=O)N(c2ccc(S(F)(F)(F)(F)F)cc2)C(C(=O)NC2CCC(F)(F)CC2)c2cnccc2C)N(C#N)C1 (single isomer, unassigned) [Compound 1199]
pIC50: > 5.70
//
Compound: Cc1c[nH]c2cc(N(C(=O)[C@H]3C[C@@H](O)CN3C#N)C(C(=O)NC3CCC(F)(F)CC3)c3cncc(F)c3)ccc12 (single isomer, unassigned) [Compound 747b Isomer 1]
pIC50: > 5.70
//
Compound: CO[C@@H]1C[C@H](C(=O)N(c2ccc(C(C)(C)C)cc2)C(C(=O)NC2CCCCC2)c2cccnc2)N(C#N)C1 (single isomer, unassigned) [Compound 292 Isomer 1]
pIC50: 5.00 to 5.70
//
Compound: CC(C)(C)OC(=O)N1CCC[C@@H]1C(=O)N(c1ccc(C(C)(C)C)cc1)C(C(=O)NC1CCCCC1)c1cccnc1 (stereo partly drawn) [Compound 131b]
pIC50: < 4.52

Input line: For CN1CCN(C(=O)C(c2cccnc2)N(C(=O)[C@H]2CCCN2C#N)c2ccc(C(C)(C)C)cc2)CC1=O (stereo partly drawn) [Compound 969] , what is its reported pIC50?
Output line: > 5.70

Input line: Likewise for C[C@@H]1CC[C@H](C(=O)N(c2ccc(C(C)(C)C)cc2)C(C(=O)NC2CCCCC2)c2cccnc2)N1C#N (single isomer, unassigned) [Compound 244 Isomer 1] ?
Output line: 5.00 to 5.70
